Where these numbers come from: paper PMC12519461

- assay-comment: Cytotoxicity in HaCat cells (MTT, 72 h)
- Type: cell-based
- condition-parameters: human, from 500 μM
quantity-kind: CC50 at 72 h

Problem: Value lookup for CC50 at 72 h; key = CCCSc1ccc2nc(NC(=O)OC)[nH]c2c1 [albendazole, reference compound]
Result: > 500 µM

----------
- assay-comment: Cytotoxicity in HaCat cells (MTT, 72 h)
- Format: cell-based
- condition-parameters: human, HaCat cells, from 500 μM
- Experimental: Cytotoxicity was assessed using the MTT assay. After 72 h, MTT solution was added, followed by 3 h of incubation. Absorbance was measured at 595 nm using an Epoch Microplate Spectrophotometer (BioTek Instruments, Winooski, VT, USA). Assays were performed in triplicate and repeated three times.
Below, each entry is listed alongside its reported CC50 at 72 h.

Clc1ccc(C(c2ccccc2)N2CCN(C/C=C/c3ccccc3)CC2)cc1 (stereo not drawn) [compound 2, reference compound] : > 500 µM
COc1ccc(/C=C/C(=O)N2CCN(C(c3ccccc3)c3ccccc3)CC2)cc1 [compound 3b] : > 500 µM

Moving on to another molecule below.
Problem: Reported CC50 at 72 h for COc1ccc(/C=C/CN2CCN(C(c3ccccc3)c3ccccc3)CC2)cc1 [compound 1b] : what is it?
Result: > 500 µM
